Numbers sourced from ChEMBL document CHEMBL1154044.

- System: Mus musculus
- TEST_DESCRIPTION: Toxicity in CD1 mouse assessed as leukocyte level at 300 mg/kg, ip after 3 days
- Format: organism-based
- Parameters: dose 300 mg/kg, route intraperitoneal
- MEASUREMENT_CONDITIONS: in vivo, 72 h
List of Activity values.
The figure you give is taken to be in µL⁻¹; do not add the unit.

>  <COMPOUND>
CCCCCCNC(=O)/C=C/c1ccc([N+](=O)[O-])o1

>  <Activity / µL⁻¹>
12100

$$$$
>  <COMPOUND>
CCCCCCOC(=O)N/N=C/c1ccc([N+](=O)[O-])o1

>  <Activity / µL⁻¹>
4900

$$$$
>  <COMPOUND>
CCCCCCCCOC(=O)N/N=C/c1ccc([N+](=O)[O-])o1

>  <Activity / µL⁻¹>
5300

$$$$
>  <COMPOUND>
CCCCCCOC(=O)N/N=C/C=C/c1ccc([N+](=O)[O-])o1

>  <Activity / µL⁻¹>
5300

$$$$
>  <COMPOUND>
CCCCCCNC(=O)N/N=C/C=C/c1ccc([N+](=O)[O-])o1

>  <Activity / µL⁻¹>
31700

$$$$

Next item in the queue.
Incoming: // fetch Mus musculus Activity for CCCCCCCCOC(=O)N/N=C/C=C/c1ccc([N+](=O)[O-])o1
Outgoing: 10600

---

List of Activity values.
- Tested on: Mus musculus
- TEST_DESCRIPTION: Toxicity in CD1 mouse assessed as increase in weight respect to day zero at 450 mg/kg, po after 3 days
- MEASUREMENT_CONDITIONS: in vivo, 72 h
The figure you give is taken to be in %; do not add the unit.

>  <SMILES_INPUT>
CCCCCCNC(=O)N/N=C/C=C/c1ccc([N+](=O)[O-])o1

>  <OBSERVABLE>
Activity

>  <MEASURED_RESULT>
21

$$$$
>  <SMILES_INPUT>
CCCCCCCCOC(=O)N/N=C/C=C/c1ccc([N+](=O)[O-])o1

>  <OBSERVABLE>
Activity

>  <MEASURED_RESULT>
2

$$$$
>  <SMILES_INPUT>
CCCCCCOC(=O)N/N=C/c1ccc([N+](=O)[O-])o1

>  <OBSERVABLE>
Activity

>  <MEASURED_RESULT>
3

$$$$

Next item in the queue.
Incoming: Need Activity of CCCCCCOC(=O)N/N=C/C=C/c1ccc([N+](=O)[O-])o1 , thanks.
Outgoing: 2

---

- Tested on: Mus musculus
- TEST_DESCRIPTION: Toxicity in CD1 mouse assessed as glutamic-oxalacetate transaminase level at 300 mg/kg, ip after 3 days
- Assay type: organism-based
- Design: dose 300 mg/kg, route intraperitoneal
- MEASUREMENT_CONDITIONS: in vivo, 72 h
Outcome: Yes for Activity of at least 100 IU/L; No for anything lower.

Known results for molecules:
>  <MOLECULE>
CCCCCCNC(=O)N/N=C/C=C/c1ccc([N+](=O)[O-])o1

>  <ASSAYED_SYSTEM>
Mus musculus

>  <CLASSIFICATION>
Yes

$$$$
>  <MOLECULE>
CCCCCCCCOC(=O)N/N=C/C=C/c1ccc([N+](=O)[O-])o1

>  <ASSAYED_SYSTEM>
Mus musculus

>  <CLASSIFICATION>
No

$$$$
>  <MOLECULE>
CCCCCCOC(=O)N/N=C/C=C/c1ccc([N+](=O)[O-])o1

>  <ASSAYED_SYSTEM>
Mus musculus

>  <CLASSIFICATION>
Yes

$$$$
>  <MOLECULE>
CCCCOC(=O)N/N=C/C=C/c1ccc([N+](=O)[O-])o1

>  <ASSAYED_SYSTEM>
Mus musculus

>  <CLASSIFICATION>
No

$$$$

Incoming: hey, is Activity for this one >= 100 IU/L? CCCCCCCOC(=O)N/N=C/C=C/c1ccc([N+](=O)[O-])o1
Outgoing: No

Incoming: hey, is Activity for this one >= 100 IU/L? CCCCCCNC(=O)/C=C/c1ccc([N+](=O)[O-])o1
Outgoing: Yes

Incoming: hey, is Activity for this one >= 100 IU/L? CCCCCCOC(=O)N/N=C/c1ccc([N+](=O)[O-])o1
Outgoing: Yes

Incoming: hey, is Activity for this one >= 100 IU/L? CC1CS(=O)(=O)CCN1/N=C/c1ccc([N+](=O)[O-])o1 (stereo not drawn)
Outgoing: Yes

---

- System: Mus musculus
- TEST_DESCRIPTION: Toxicity in CD1 mouse kidney at 300 mg/kg, ip after 3 days by histological study
- Format: organism-based
- Set-up: dose 300 mg/kg, route intraperitoneal
- MEASUREMENT_CONDITIONS: in vivo, 72 h
OBSERVABLE: Activity

Below: 10 molecules and their reported Activity.
>  <MOLECULE>
CCCCCCNC(=O)N/N=C/C=C/c1ccc([N+](=O)[O-])o1

>  <OBSERVABLE>
Activity

>  <MEASURED_RESULT>
Toxic

$$$$
>  <MOLECULE>
CCCCOC(=O)N/N=C/C=C/c1ccc([N+](=O)[O-])o1

>  <OBSERVABLE>
Activity

>  <MEASURED_RESULT>
Non-toxic

$$$$
>  <MOLECULE>
CCCCCCCCOC(=O)N/N=C/C=C/c1ccc([N+](=O)[O-])o1

>  <OBSERVABLE>
Activity

>  <MEASURED_RESULT>
Non-toxic

$$$$
>  <MOLECULE>
CCCCCCCCOC(=O)N/N=C/c1ccc([N+](=O)[O-])o1

>  <OBSERVABLE>
Activity

>  <MEASURED_RESULT>
Non-toxic

$$$$
>  <MOLECULE>
CC1CS(=O)(=O)CCN1/N=C/c1ccc([N+](=O)[O-])o1 (stereo unspecified)

>  <OBSERVABLE>
Activity

>  <MEASURED_RESULT>
Non-toxic

$$$$
>  <MOLECULE>
CCCCCCOC(=O)N/N=C/C=C/c1ccc([N+](=O)[O-])o1

>  <OBSERVABLE>
Activity

>  <MEASURED_RESULT>
Non-toxic

$$$$
>  <MOLECULE>
COCCNC(=O)N/N=C/c1ccc([N+](=O)[O-])o1

>  <OBSERVABLE>
Activity

>  <MEASURED_RESULT>
Non-toxic

$$$$
>  <MOLECULE>
CCCCNC(=O)N/N=C/c1ccc([N+](=O)[O-])o1

>  <OBSERVABLE>
Activity

>  <MEASURED_RESULT>
Toxic

$$$$
>  <MOLECULE>
CCCCCCNC(=O)/C=C/c1ccc([N+](=O)[O-])o1

>  <OBSERVABLE>
Activity

>  <MEASURED_RESULT>
Non-toxic

$$$$
>  <MOLECULE>
CCCCCCOC(=O)N/N=C/c1ccc([N+](=O)[O-])o1

>  <OBSERVABLE>
Activity

>  <MEASURED_RESULT>
Non-toxic

$$$$

Next item in the queue.
Incoming: Need Activity of CCCCCCCOC(=O)N/N=C/C=C/c1ccc([N+](=O)[O-])o1 , thanks.
Outgoing: Non-toxic

---

- Tested on: Mus musculus
- TEST_DESCRIPTION: Toxicity in CD1 mouse assessed as hematocrite level at 450 mg/kg, po after 3 days
- Type: organism-based
- Set-up: dose 450 mg/kg, route oral
- MEASUREMENT_CONDITIONS: in vivo, 72 h
List of Activity values.
The figure you give is taken to be in %; do not add the unit.

>  <COMPOUND>
CCCCCCNC(=O)/C=C/c1ccc([N+](=O)[O-])o1

>  <Activity [%]>
30.4

$$$$
>  <COMPOUND>
CC1CS(=O)(=O)CCN1/N=C/c1ccc([N+](=O)[O-])o1 (stereo unspecified)

>  <Activity [%]>
42.4

$$$$

Incoming: Need Activity of CCCCCCOC(=O)N/N=C/c1ccc([N+](=O)[O-])o1 , thanks.
Outgoing: 34.4

Incoming: Need Activity of CCCCCCOC(=O)N/N=C/C=C/c1ccc([N+](=O)[O-])o1 , thanks.
Outgoing: 42.1

Incoming: Need Activity of CCCCCCCOC(=O)N/N=C/C=C/c1ccc([N+](=O)[O-])o1 , thanks.
Outgoing: 39.4

Incoming: Need Activity of CCCCCCCCOC(=O)N/N=C/c1ccc([N+](=O)[O-])o1 , thanks.
Outgoing: 36.4

---

List of Activity values.
- Test system: Mus musculus
- TEST_DESCRIPTION: Toxicity in CD1 mouse assessed as leukocyte level at 450 mg/kg, po after 3 days
- Assay type: organism-based
- Parameters: dose 450 mg/kg, route oral
- MEASUREMENT_CONDITIONS: in vivo, 72 h
The figure you give is taken to be in µL⁻¹; do not add the unit.

Below: 2 molecules and their reported Activity.
>  <MOLECULE>
CCCCCCCCOC(=O)N/N=C/c1ccc([N+](=O)[O-])o1

>  <Activity, µL⁻¹>
6600

$$$$
>  <MOLECULE>
CC1CS(=O)(=O)CCN1/N=C/c1ccc([N+](=O)[O-])o1 (centres undefined) [NIFURTIMOX]

>  <Activity, µL⁻¹>
6700

$$$$

Incoming: Need Activity of CCCCOC(=O)N/N=C/C=C/c1ccc([N+](=O)[O-])o1 , thanks.
Outgoing: 26600

Incoming: Need Activity of CCCCCCNC(=O)/C=C/c1ccc([N+](=O)[O-])o1 , thanks.
Outgoing: 86000

Incoming: Need Activity of CCCCCCCCOC(=O)N/N=C/C=C/c1ccc([N+](=O)[O-])o1 , thanks.
Outgoing: 7750

Incoming: Need Activity of CCCCCCNC(=O)N/N=C/C=C/c1ccc([N+](=O)[O-])o1 , thanks.
Outgoing: 32400

Incoming: Need Activity of CCCCCCOC(=O)N/N=C/C=C/c1ccc([N+](=O)[O-])o1 , thanks.
Outgoing: 6600

Incoming: Need Activity of CCCCCCOC(=O)N/N=C/c1ccc([N+](=O)[O-])o1 , thanks.
Outgoing: 2700

Incoming: Need Activity of CCCCCCCOC(=O)N/N=C/C=C/c1ccc([N+](=O)[O-])o1 , thanks.
Outgoing: 9010
